- assay explanation: protein stability index of a GFP-peptide fusion (yeast GPS) (PSI 1-4); higher = more stable; sorted into four equal gates, so the index is relative within each strain
- measurement conditions: ubr1∆
Think of 2 as a floor: if protein stability index stands on it or above, it is fulfilled; beneath it, not fulfilled.

Below, 3 sequences whose answers are already recorded.
- QEWLANLKLISVSLVDE [SIR4]: not fulfilled
- NLAPKLRNVFLGKCSRI [GRR1]: fulfilled
- LPENIILTSLMRSKLEK [CSN9]: fulfilled

Req: Decide: protein stability index of SNRCIVFSKKEPFPHSK [CSN12] >= 2?
Resp: fulfilled

Req: Decide: protein stability index of KLLDNIQEYQLCDNFNH [COR1] >= 2?
Resp: fulfilled

Req: Decide: protein stability index of KFSSRHGQKGVCGIIVK [RET1] >= 2?
Resp: fulfilled

Req: Decide: protein stability index of HANSVVALTGLLIRSKT [YML031W/NDC1] >= 2?
Resp: fulfilled

Req: Decide: protein stability index of KDLVEIKKEEGKIDEAA [RPN5] >= 2?
Resp: fulfilled

Req: Decide: protein stability index of DIFAVNLEESSKLDIYT [RET1] >= 2?
Resp: fulfilled

Req: Decide: protein stability index of TVHSKSRTRAHAQSKRE [RPL19A] >= 2?
Resp: fulfilled

====

- assay explanation: protein stability index of a GFP-peptide fusion (yeast GPS) (PSI 1-4); higher = more stable; sorted into four equal gates, so the index is relative within each strain
- measurement conditions: pdr5∆
We begin with a simple list: items and their reported protein stability index.
Enter a number only.

* PTSPNYSPTSPSYSPTS [RPO21] | 2.9
* VFVKKHHELIKVKHDSQ [SSN2] | 1.29

Req: What protein stability index value was documented for this sequence, HKSPNLSLMLESPNYCN [SRB4] ?
Resp: 2.65

Req: What protein stability index value was documented for this sequence, TSHYQNYHPNASITPYK [RPN4] ?
Resp: 3.11

Req: What protein stability index value was documented for this sequence, NILSNKPGQNNRQQKKR [RRP6] ?
Resp: 3.06

Req: What protein stability index value was documented for this sequence, GEDFMEVDYEDKDNPVD [SRB4] ?
Resp: 2.96

Req: What protein stability index value was documented for this sequence, LFLYKELVKAHLGERAA [RPC82] ?
Resp: 2.96

====

- assay explanation: protein stability index of a GFP-peptide fusion (yeast GPS) (PSI 1-4); higher = more stable; sorted into four equal gates, so the index is relative within each strain
- measurement conditions: san1∆
We begin with a simple list: items and their reported protein stability index.
Enter a number only.

- MSNDPGNEVSSLYPPPP [MED7]: 2.69

Req: What protein stability index value was documented for this sequence, RDKVCKQINEARDEILP [PGD1] ?
Resp: 1.5

Req: What protein stability index value was documented for this sequence, SQWNDSSIDKIEDRDFL [SIR3] ?
Resp: 3.23

Req: What protein stability index value was documented for this sequence, HLMSWSKTGIIAYSDSQ [SIN4] ?
Resp: 1.32

====

We begin with a simple list: items and their reported protein stability index.
- assay explanation: protein stability index of a GFP-peptide fusion (yeast GPS) (PSI 1-4); higher = more stable; sorted into four equal gates, so the index is relative within each strain
- measurement conditions: doa10∆

Req: What protein stability index value was documented for this sequence, SPISDSRDELIRLAKTL [RPN10] ?
Resp: 1.84

Req: What protein stability index value was documented for this sequence, QKLHKVKKASGEIVSIN [RPL20A] ?
Resp: 2.98

Req: What protein stability index value was documented for this sequence, LKSFTESTAGSASTSAT [ECM29] ?
Resp: 2.82

Req: What protein stability index value was documented for this sequence, VRMLASPMLYKVPDISS [BRR2] ?
Resp: 2.28

Req: What protein stability index value was documented for this sequence, SCAIHARIVRVRSREDR [RPS26A] ?
Resp: 2.41

====

- assay explanation: protein stability index of a GFP-peptide fusion (yeast GPS) (PSI 1-4); higher = more stable; sorted into four equal gates, so the index is relative within each strain
- measurement conditions: pdr5∆
Think of 3 as a floor: if protein stability index stands on it or above, it is t; beneath it, f.

* GGFEYFLQPLLLVGLIK [NUT1] | f
* LHPYNSRGLFEKKLMQD [YDL116W/NUP84] | t
* LVVYAEDNGIVKALRNV [RPL4A] | t
* KKIFGTGKRLAKKVARR [RPS24A] | t
* ELSVTGSAINHHRIFDS [YMR129W/POM152] | t

Turning now to a further sequence:
Req: Decide: protein stability index of RAPIYHSKFRSSSGNTW [YML031W/NDC1] >= 3?
Resp: f

====

- assay explanation: protein stability index of a GFP-peptide fusion (yeast GPS) (PSI 1-4); higher = more stable; sorted into four equal gates, so the index is relative within each strain
- measurement conditions: san1∆
We begin with a simple list: items and their reported protein stability index.
Enter a number only.

- TTMFENTGWSCSRIIKI [RGR1]: 3.37
- KKSGSLTFNSKNIQSKD [FAS2]: 3.26
- MMEEIINVVIKASRKSV [ECM29]: 2.04
- IGQIIFSVRTKDSNKDV [RPL10]: 2.21
- SGQKTNRQVMHKMGVER [SIR3]: 3.4

Req: What protein stability index value was documented for this sequence, TSTPPPPPAPHNLHPQI [SNF5] ?
Resp: 3.08

Req: What protein stability index value was documented for this sequence, AKINEVYNNSKDEYLAQ [NSL1] ?
Resp: 2.77

Req: What protein stability index value was documented for this sequence, EDYELSPQAVSSFVRQE [PRE1] ?
Resp: 2.31

Req: What protein stability index value was documented for this sequence, VEIAFLFRAIYLYCLDN [YCG1] ?
Resp: 1.21

====

- assay explanation: protein stability index of a GFP-peptide fusion (yeast GPS) (PSI 1-4); higher = more stable; sorted into four equal gates, so the index is relative within each strain
- measurement conditions: pdr5∆
Think of 3 as a floor: if protein stability index stands on it or above, it is MET; beneath it, NOT MET.

- RIANIEQNHLDNNYNTA [YDL088C/ASM4]: MET
- TSAIEVLVGSCAYTGTG [RPN1]: MET
- SGEEKGKKVTGFKDEVL [RPS1A]: NOT MET
- NVTGGKAANFIQNQSPQ [SWI1]: NOT MET

Req: Decide: protein stability index of RQGLIHQGSGGSVMSAS [SMC3] >= 3?
Resp: MET

====

- assay explanation: protein stability index of a GFP-peptide fusion (yeast GPS) (PSI 1-4); higher = more stable; sorted into four equal gates, so the index is relative within each strain
- measurement conditions: pdr5∆
observed property: protein stability index
Enter a number only.

• NDTSSGTNAMLPSPESL [SNF5] = 2.84
• GILGNKAQAKMDKRAKN [RPL8A] = 3.51
• LLSKIMLNLIDDVKNIL [RPN6] = 1.4
• YARFKNDFFPGEVVYLR [ITC1] = 1.99
• EFNSIDRVIFRVPIRSE [PRP8] = 3.33
• YKIKGRNNSKSVLLKKL [SRP72] = 1.56
• KPTDATGNTTSKSAFSF [YOR098C/NUP1] = 2.57
• ITYDKQEPSASQVKDSV [SRP68] = 3.12

Req: What protein stability index value was documented for this sequence, VGACTDEEMTISQKLHD [RRP43] ?
Resp: 3.04

Req: What protein stability index value was documented for this sequence, TCQILESGEDEAEFSLR [RRP46] ?
Resp: 2.62

====

- assay explanation: protein stability index of a GFP-peptide fusion (yeast GPS) (PSI 1-4); higher = more stable; sorted into four equal gates, so the index is relative within each strain
- measurement conditions: ubr1∆
Think of 3 as a floor: if protein stability index stands on it or above, it is 1.0; beneath it, 0.0.

Below, 2 sequences whose answers are already recorded.
* IIEQLSIAAERYDYSDE [YCG1] | 0.0
* HNKLNITSDALEGITTT [SMC3] | 1.0

Turning now to a further sequence:
Req: Decide: protein stability index of LESADKQLEKRDYQRIN [POP4] >= 3?
Resp: 1.0

====

- assay explanation: protein stability index of a GFP-peptide fusion (yeast GPS) (PSI 1-4); higher = more stable; sorted into four equal gates, so the index is relative within each strain
- measurement conditions: ubr1∆
observed property: protein stability index

• ISFRSNLLKNFISSNDA [SNF6] = 2.27
• DFQIDGNIFELLSDTFE [RRI2] = 3.16
• NKFHKSIREDILECDLL [SIR2] = 3.08
• ERNEQEREIMNDHSKSA [SWI3] = 3.48
• AKKTSTSVDGKKRSKVR [HTB2] = 3.31
• KKDVEKELPDKVEKVVK [SNF2] = 3.34

Req: What protein stability index value was documented for this sequence, VFVKKHHELIKVKHDSQ [SSN2] ?
Resp: 1.35

Req: What protein stability index value was documented for this sequence, TSHYQNYHPNASITPYK [RPN4] ?
Resp: 2.89
